Numbers sourced from patent US4379917A.

Let's look at some compounds and their measured MIC.
system: Pseudomonas aeruginosa X48; assay: MIC by standard agar dilution test; type: cell-based; conditions: X48, read-out: Minimum Inhibitory Concentration
Please respond with the number in µg/mL and leave the unit unwritten.

[
  {
    "compound": "CN[C@@H]1[C@@H](O[C@H]2O[C@H](C)[C@@H](N)[C@H](O)[C@H]2O)O[C@H]2C[C@@H](N)[C@@H](O[C@H]3[C@H](O)[C@@H](O)[C@H](N)C[C@@H]3N)O[C@@H]2[C@@H]1O [Test Compound 4, 6\"-Deoxyapramycin]",
    "units.text": "µg/mL",
    "MIC": 4
  }
]

-- ask Which MIC is listed for CN[C@@H]1[C@@H](O[C@H]2O[C@H](CN)[C@@H](N)[C@H](O)[C@H]2O)O[C@H]2C[C@@H](N)[C@@H](O[C@H]3[C@H](O)[C@@H](O)[C@H](N)C[C@@H]3N)O[C@@H]2[C@@H]1O [Test Compound 5, 6"-Amino-6"-Deoxyapramycin] ?
-- reply 32

-- ask So what does the record say about MIC for CN[C@@H]1[C@@H](O[C@H]2O[C@H](CCl)[C@@H](N)[C@H](O)[C@H]2O)O[C@H]2C[C@@H](N)[C@@H](O[C@H]3[C@H](O)[C@@H](O)[C@H](N)C[C@@H]3N)O[C@@H]2[C@@H]1O [Test Compound 3, 6"-Chloro-6"-Deoxyapramycin] ?
-- reply 16

###

# MIC per entry
tested on: Enterobacter cloacae EB24; assay: MIC by standard agar dilution test; type: cell-based; details: EB24, read-out: Minimum Inhibitory Concentration
Number plus unit, in that order.

-- ask Quick one: MIC for "CN[C@@H]1[C@@H](O[C@H]2O[C@H](CCl)[C@@H](N)[C@H](O)[C@H]2O)O[C@H]2C[C@@H](N)[C@@H](O[C@H]3[C@H](O)[C@@H](O)[C@H](N)C[C@@H]3N)O[C@@H]2[C@@H]1O" ?
-- reply 4 µg/mL

-- ask Need MIC, item "CN[C@@H]1[C@@H](O[C@H]2O[C@H](COS(C)(=O)=O)[C@@H](N)[C@H](O)[C@H]2O)O[C@H]2C[C@@H](N)[C@@H](O[C@H]3[C@H](O)[C@@H](O)[C@H](N)C[C@@H]3N)O[C@@H]2[C@@H]1O"
-- reply 4 µg/mL

-- ask Param item = "CN[C@@H]1[C@@H](O[C@H]2O[C@H](C)[C@@H](N)[C@H](O)[C@H]2O)O[C@H]2C[C@@H](N)[C@@H](O[C@H]3[C@H](O)[C@@H](O)[C@H](N)C[C@@H]3N)O[C@@H]2[C@@H]1O" ; retrieve measured MIC.
-- reply 4 µg/mL

-- ask Fill blank: measured MIC of the compound "CN[C@@H]1[C@@H](O[C@H]2O[C@H](CO[Si](C)(C)C(C)(C)C)[C@@H](N)[C@H](O)[C@H]2O)O[C@H]2C[C@@H](N)[C@@H](O[C@H]3[C@H](O)[C@@H](O)[C@H](N)C[C@@H]3N)O[C@@H]2[C@@H]1O" is ____.
-- reply 16 µg/mL
